Cited source: PubChem BioAssay AID248

Test system: L1210 leukemia ip in BDF1 mice, survival T/C
EXPERIMENTAL DETAILS: NCI In Vivo Anticancer Drug Screen. Data for tumor model L1210 Leukemia (intraperitoneal) in B6D2F1 (BDF1) mice
RECORDED CONDITIONS: endpoint: mean survival time; dose: 50.0 mg/kg/injection; schedule: Q01DX001 (ip); vehicle: saline; higher = longer survival
Toxic doses and inconclusive results are not listed.
REPORTED METRIC: T/C

>>> experimental_value("O=c1[nH]c2ncccc2c(=O)n1OS(=O)(=O)c1ccccc1")
"102 % of control"
>>> experimental_value("Oc1ccc(Nc2cc(/C=C/c3ccc(Cl)cc3)nc(/C=C/c3ccc(Cl)cc3)n2)cc1CN1CCCC1")
"89 % of control"
>>> experimental_value("CCCCSC(C)(C)CC")
"98 % of control"
>>> experimental_value("CCCCCCN(C)Cc1ccc(OCCOc2ccc(CN(C)CCCCCC)cc2)cc1")
"100 % of control"
>>> experimental_value("CCSC(SCC)C(NC(C)=O)C1OC(C)(C)OC1C(O)CO (centres undefined)")
"97 % of control"
>>> experimental_value("CC(=O)Nc1ccc(Cc2ccc(NC(C)=O)cc2N)c(N)c1")
"96 % of control"
>>> experimental_value("CC1=[N+](CCS(C)(=O)=O)C(C)CCC1 (centres undefined)")
"115 % of control"
>>> experimental_value("CCOC(=O)C1/C(=N\\N=C2\\c3c(nnp3N(CCOS(C)(=O)=O)CCOS(C)(=O)=O)C(C(=O)OCC)C(c3ccc(OC(C)=O)cc3)C2C(=O)OCC)c2c(nnp2N(CCOS(C)(=O)=O)CCOS(C)(=O)=O)C(C(=O)OCC)C1c1ccc(OC(C)=O)cc1 (centres undefined)")
"103 % of control"
>>> experimental_value("CCC(Br)(CC)C(=O)c1ccc(OCC(=O)O)c(Cl)c1Cl")
"104 % of control"

---

System: L1210 leukemia ip in BDF1 mice, survival T/C
EXPERIMENTAL DETAILS: NCI In Vivo Anticancer Drug Screen. Data for tumor model L1210 Leukemia (intraperitoneal) in B6D2F1 (BDF1) mice
RECORDED CONDITIONS: endpoint: mean survival time; dose: 200.0 mg/kg/injection; schedule: Q04DX003 (ip); vehicle: Klucel (hydroxypropylcellulose) (HPC); higher = longer survival
Inconclusive results and toxic doses are left out.
Measured T/C accompanies every entry in the list below.
REPORTED METRIC: T/C

>>> experimental_value("COc1cc(NC2=C(Cl)C(=O)C(Nc3cc(OC)c(OC)c(OC)c3)=C(Cl)C2=O)cc(OC)c1OC")
"95 % of control"
>>> experimental_value("Cc1ccc(NC(=O)N(CCO)C2CCCCC2)c([N+](=O)[O-])c1")
"98 % of control"
>>> experimental_value("CC(=O)c1ccc(C(C)=O)c(OCc2ccccc2)c1")
"98 % of control"
>>> experimental_value("CCCCCCCCC1SC1CCCCCCCC(=O)NCCCOCCOCCOCC (configuration not stated)")
"100 % of control"
>>> experimental_value("N#Cc1c(O)c(Cl)c(Cl)c(O)c1C#N")
"96 % of control"
>>> experimental_value("Nc1ccc(Nc2ccncc2)cc1")
"95 % of control"
>>> experimental_value("O=C1c2ccccc2-c2ncccc21")
"109 % of control"
>>> experimental_value("c1ccc(OP(Oc2ccccc2)c2ccccc2)cc1")
"102 % of control"
>>> experimental_value("CC12C=CC3(CCC4C(C)(C)C(=O)C(O)=CC4(C)C3CC1=O)C2 (configuration not stated)")
"98 % of control"
>>> experimental_value("CCC(CC)(CO)CO")
"94 % of control"
>>> experimental_value("CC(=O)C1CCC2C3CC=C4CC(O)C=CC4(C)C3CCC12C (configuration not stated)")
"96 % of control"
>>> experimental_value("CC(C)C1=CC(=O)OC1C(O)C(C)C1CCC2C3CC=C4CC(O)CCC4(C)C3CCC12C (configuration not stated)")
"96 % of control"
>>> experimental_value("CCc1csc(=S)[nH]1")
"98 % of control"
>>> experimental_value("Cc1cc(=O)[nH]n1-c1ccc(N)cc1")
"94 % of control"
>>> experimental_value("CCCCCCCCOc1ccc(C2=NN(c3ccccc3)C(=O)C2)cc1")
"100 % of control"
>>> experimental_value("CC(C)N(C)C(C1=CC(C)(C)c2ccccc2C1=O)c1ccccc1 (configuration not stated)")
"101 % of control"
>>> experimental_value("CN(C)CC1C2C=CC(C3CC23)C1CN(C)C (configuration not stated)")
"89 % of control"
>>> experimental_value("Clc1ccc2sc3c(c2c1)CCNC3")
"92 % of control"
>>> experimental_value("COc1ccc(OC)c(CC(CC(=O)O)(C(=O)O)C(=O)O)c1")
"96 % of control"
>>> experimental_value("COC1c2c(nc3ccccc3c2C(=O)O)-c2ccccc2C1(C)C (configuration not stated)")
"104 % of control"
>>> experimental_value("Nc1ccc(N=Nc2ccccc2)c(N)n1")
"90 % of control"
>>> experimental_value("O=S(=O)(O)c1ccc(-c2ccccc2)cc1")
"94 % of control"
>>> experimental_value("CCCCC(CC)CCC(=O)CC(C)C (configuration not stated)")
"98 % of control"
>>> experimental_value("O=C(Nc1ccc([N+](=O)[O-])cc1Cl)Oc1ccc(OCc2ccccc2)cc1")
"91 % of control"
>>> experimental_value("O=Cc1c[nH]c2ccccc12")
"105 % of control"
>>> experimental_value("CCc1ccccc1NC(=O)NC(C)C")
"97 % of control"
>>> experimental_value("COC(C)c1cnccc1/C(C)=C1/Nc2ccccc2C1=O (configuration not stated)")
"96 % of control"

---

System: L1210 leukemia ip in BDF1 mice, survival T/C
EXPERIMENTAL DETAILS: NCI In Vivo Anticancer Drug Screen. Data for tumor model L1210 Leukemia (intraperitoneal) in B6D2F1 (BDF1) mice
RECORDED CONDITIONS: endpoint: mean survival time; dose: 25.0 mg/kg/injection; schedule: Q04DX003 (ip); vehicle: saline with Tween-80; higher = longer survival
Toxic doses and inconclusive results are not listed.
Listed next: entries and their corresponding T/C.
REPORTED METRIC: T/C

>>> experimental_value("Cc1cc(C)c(C(Br)C(Br)c2c(C)cc(C)cc2C)c(C)c1 (configuration not stated)")
"93 % of control"
>>> experimental_value("C[Si](C)(C)Oc1cc(N=NNC2=CC(=O)c3ccccc3C2=O)c(O)c2ccccc12")
"93 % of control"
>>> experimental_value("CC1(C)OCC(CO)([N+](=O)[O-])CO1")
"93 % of control"
>>> experimental_value("C[N+](C)(Cc1ccccc1)CC(O)COc1ccccc1 (configuration not stated)")
"94 % of control"
>>> experimental_value("COc1cccc(OC)c1OCCCN1CCOCC1")
"99 % of control"
>>> experimental_value("NC1CCc2ccccc2C(O)C1c1ccccc1 (configuration not stated)")
"107 % of control"
>>> experimental_value("CC1=NC(C(=O)Cl)NN1c1ccccc1 (configuration not stated)")
"96 % of control"

---

Below, each entry is listed alongside its reported T/C.
System: L1210 leukemia ip in BDF1 mice, survival T/C
EXPERIMENTAL DETAILS: NCI In Vivo Anticancer Drug Screen. Data for tumor model L1210 Leukemia (intraperitoneal) in B6D2F1 (BDF1) mice
RECORDED CONDITIONS: endpoint: mean survival time; dose: 50.0 mg/kg/injection; schedule: Q01DX009 (ip); vehicle: saline with Tween-80; higher = longer survival
Inconclusive results and toxic doses are left out.
REPORTED METRIC: T/C

>>> experimental_value("CN=C(N)Nc1ccccc1")
"97 % of control"
>>> experimental_value("CC(=O)c1ccc(Cc2ccc(C(C)=O)s2)s1")
"86 % of control"
>>> experimental_value("O=C1OCCN1/N=C/c1ccc(Cl)cc1")
"102 % of control"
>>> experimental_value("Cc1ccc(NC(=O)CC#N)c(C)c1")
"95 % of control"
>>> experimental_value("O=C(/C(=C\\Cl)CBr)c1ccccc1")
"90 % of control"
>>> experimental_value("CC(=O)OC1C2CC3C(C2)C31 (configuration not stated)")
"105 % of control"
>>> experimental_value("COc1ccc2c(c1)CCC1C2=CC(=O)/C1=C\\[O-].COc1ccc2c(c1)CCC1C2=CC(=O)/C1=C\\[O-].[Cu+2] (configuration not stated)")
"97 % of control"

---

Tested on: L1210 leukemia ip in BDF1 mice, survival T/C
EXPERIMENTAL DETAILS: NCI In Vivo Anticancer Drug Screen. Data for tumor model L1210 Leukemia (intraperitoneal) in B6D2F1 (BDF1) mice
RECORDED CONDITIONS: endpoint: mean survival time; dose: 400.0 mg/kg/injection; schedule: Q01DX001 (ip); vehicle: other
Inconclusive results and toxic doses are left out. Cut-off read from the data, not from the text of the source: active = T/C of 150% or more; inactive = T/C below 125%.
Classes used: active, inactive

>>> group_label("CCCCCCN(CCCCCC)[N+](=O)[O-]")
"inactive"
>>> group_label("CC(=O)OC1CCC(NC(=O)NCCF)CC1 (configuration not stated)")
"inactive"
>>> group_label("O=NN(CCCl)C(=O)Nc1ccc(CCO)cc1")
"active"
>>> group_label("O=Cc1ccc2cc(Cl)ccc2n1")
"inactive"
>>> group_label("CCCN(CCC)[N+](=O)[O-]")
"inactive"
>>> group_label("CN(C)c1ccc(C(Nc2ccccc2)C(Nc2ccccc2)c2ccc(N(C)C)cc2)cc1 (configuration not stated)")
"inactive"
>>> group_label("N#CCCCCCCCCC(=O)OCCC#N")
"inactive"
>>> group_label("Cc1cccc(NC(=O)NCCCl)c1")
"inactive"
>>> group_label("Cc1cc(CC(C)C)c(C(N)=O)cc1C")
"inactive"
>>> group_label("Cc1cccc2cc[nH]c12")
"inactive"
>>> group_label("CCOC(=O)c1c[nH]c2c(Cl)cc(Cl)cc2c1=O")
"inactive"
>>> group_label("COC(=O)C(Nc1ccc([N+](=O)[O-])cc1[N+](=O)[O-])C(C)O (configuration not stated)")
"inactive"
